Source listed as patent US20240059728A1.

Listing of recorded Kd by entry.
assay.target: Galectin-3 (Homo sapiens (Human))
Sequence (P17931 whole entry): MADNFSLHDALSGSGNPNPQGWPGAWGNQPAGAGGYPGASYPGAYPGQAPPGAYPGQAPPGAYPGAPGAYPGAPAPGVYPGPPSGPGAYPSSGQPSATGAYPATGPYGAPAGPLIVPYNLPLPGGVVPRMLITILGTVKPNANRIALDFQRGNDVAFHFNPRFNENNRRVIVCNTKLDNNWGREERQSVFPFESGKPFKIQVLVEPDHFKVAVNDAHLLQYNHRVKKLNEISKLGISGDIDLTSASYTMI
protocol.description: fluorescence anisotropy assay, galectin-3
Assay type: binding
condition.parameters: inhibition of the interaction between galectin and a fluorescein tagged saccharide probe
reported.metric: Kd

compound: OCC1O[C@@H](S[C@@H]2O[C@H](CO)C(O)C(n3cc(-c4csc(O)n4)nn3)[C@H]2O)C(O)[C@@H](n2cc(-c3cc(F)c(Cl)c(F)c3)nn2)[C@H]1O (stereo partly shown) [Example 2]
result.value: 0.3 nM
--
compound: OCC1O[C@@H](S[C@@H]2O[C@H](CO)C(O)C(n3cc(-c4ccc(Cl)c(F)c4F)nn3)[C@H]2O)C(O)[C@@H](n2cc(-c3ccc(Cl)c(F)c3F)nn2)[C@H]1O (stereo partly shown) [Example 14]
result.value: 12 nM
--
compound: Nc1nc(-c2cn(C3C(O)[C@@H](CO)O[C@@H](S[C@@H]4OC(CO)[C@H](O)[C@H](n5cc(-c6cc(F)c(Cl)c(F)c6)nn5)C4O)[C@@H]3O)nn2)cs1 (stereo partly shown) [Example 3]
result.value: 1 nM
--
compound: OCC1O[C@@H](S[C@@H]2O[C@H](CO)C(O)C(n3cc(-c4csc(O)n4)nn3)[C@H]2O)C(O)[C@@H](n2cc(-c3cc(F)c(F)c(F)c3)nn2)[C@H]1O (stereo partly shown) [Example 1]
result.value: 0.4 nM
